Tested target: Adenosine receptor A1 (Homo sapiens) (UniProt P30542)
Sequence (whole entry): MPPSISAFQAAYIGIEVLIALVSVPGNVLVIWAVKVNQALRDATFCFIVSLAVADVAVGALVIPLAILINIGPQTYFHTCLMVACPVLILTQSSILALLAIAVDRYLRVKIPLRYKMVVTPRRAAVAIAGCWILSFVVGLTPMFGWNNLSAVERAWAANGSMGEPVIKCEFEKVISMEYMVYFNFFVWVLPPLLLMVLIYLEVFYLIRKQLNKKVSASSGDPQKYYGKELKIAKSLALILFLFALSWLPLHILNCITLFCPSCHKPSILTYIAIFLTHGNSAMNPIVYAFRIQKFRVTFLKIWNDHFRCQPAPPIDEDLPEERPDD
Assay remarks: Percent remaining of radioligand [3H]DPCPX binding to human adenosine A1 receptor at 1 uM
Remaining values for the molecules below.
Value expressed in %; do not type the unit.

>>> assay_result("C/N=c1\\nc(-c2ccccc2)n(-c2ccc(OC)cc2)s1")
103
>>> assay_result("CC/N=c1\\nc(-c2ccc(C)cc2)n(-c2ccc(C)cc2)s1")
100
>>> assay_result("CC/N=c1\\nc(-c2ccc(Cl)cc2)n(-c2ccc(Cl)cc2)s1")
95
>>> assay_result("CC/N=c1\\nc(-c2ccccc2)n(-c2ccc(Cl)cc2)s1")
104
>>> assay_result("CC/N=c1\\nc(-c2ccccc2)n(-c2cccc(Cl)c2)s1")
101

// switching to the query molecule
INPUT: What value of Remaining has been reported for the following molecule? C/N=c1\nc(-c2cccc(Cl)c2)n(-c2cccc(Cl)c2)s1
OUTPUT: 96

###

Tested target: UniProtKB P30542
Assay remarks: Effective concentration for displacement of [3H]CCPA from human A1 adenosine receptor after 60 min
Endpoint name: EC50 (nM)
Value expressed in nM; do not type the unit.

INPUT: What value of EC50 has been reported for the following compound? C/N=c1\nc(-c2ccccc2)n(-c2cccc(C)c2)s1
OUTPUT: 640

###

Remaining values for the molecules below.
Tested target: Adenosine receptor A1 (Homo sapiens) (UniProt P30542)
Sequence (whole entry): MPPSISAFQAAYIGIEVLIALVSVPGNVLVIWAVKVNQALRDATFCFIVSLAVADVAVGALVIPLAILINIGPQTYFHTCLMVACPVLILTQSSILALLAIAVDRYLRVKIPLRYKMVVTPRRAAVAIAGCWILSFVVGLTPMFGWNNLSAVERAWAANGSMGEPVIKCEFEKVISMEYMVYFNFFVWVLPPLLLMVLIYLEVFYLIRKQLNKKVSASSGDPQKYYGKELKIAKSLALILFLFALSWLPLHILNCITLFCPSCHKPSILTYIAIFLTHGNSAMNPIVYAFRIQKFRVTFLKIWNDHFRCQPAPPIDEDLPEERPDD
Assay remarks: Percent remaining of radioligand [3H]DPCPX binding to human adenosine A1 receptor at 1 uM
Value expressed in %; do not type the unit.

>>> assay_result("CC/N=c1\\nc(-c2ccccc2)n(-c2ccc(Cl)c(Cl)c2)s1")
100

INPUT: Give Adenosine receptor A1 (Homo sapiens) (UniProt P30542) Remaining for C/N=c1\nc(-c2ccccc2)n(-c2cccc(C)c2)s1
OUTPUT: 99

INPUT: Give Adenosine receptor A1 (Homo sapiens) (UniProt P30542) Remaining for C/N=c1\nc(-c2ccc(OC)cc2)n(-c2ccccc2)s1
OUTPUT: 100

INPUT: Give Adenosine receptor A1 (Homo sapiens) (UniProt P30542) Remaining for C/N=c1\nc(-c2ccc(Cl)cc2)n(-c2ccccc2)s1
OUTPUT: 106

INPUT: Give Adenosine receptor A1 (Homo sapiens) (UniProt P30542) Remaining for CC/N=c1\nc(-c2ccccc2)n(-c2ccc(OC)cc2)s1
OUTPUT: 103

INPUT: Give Adenosine receptor A1 (Homo sapiens) (UniProt P30542) Remaining for CC/N=c1\nc(-c2ccccc2)n(-c2cccc(C)c2)s1
OUTPUT: 98

INPUT: Give Adenosine receptor A1 (Homo sapiens) (UniProt P30542) Remaining for CC/N=c1\nc(-c2ccccc2)n(-c2ccc(C)cc2)s1
OUTPUT: 101

INPUT: Give Adenosine receptor A1 (Homo sapiens) (UniProt P30542) Remaining for C/N=c1\nc(-c2ccccc2)n(-c2ccc(Cl)cc2)s1
OUTPUT: 94

INPUT: Give Adenosine receptor A1 (Homo sapiens) (UniProt P30542) Remaining for CC/N=c1\nc(-c2ccccc2)n(-c2ccccc2)s1
OUTPUT: 103

INPUT: Give Adenosine receptor A1 (Homo sapiens) (UniProt P30542) Remaining for C/N=c1\nc(-c2ccccc2)n(-c2cccc(Cl)c2)s1
OUTPUT: 96
